Cited source for all entries: paper PMC6858373

Target: FGF14:Nav1.6 C-tail complex (Homo sapiens, UniProt Q92915+Q9UQD0)
Construct: polymerase chain reaction (PCR) amplification of the FGF14 open reading frame (nt 1–855); C-terminal fragment of Nav1.6 (amino acids 1763–1976) fused with CD4ΔC-tail (amino acids 1–395); expressed in transfected cells
Sequence (Q92915 1-252 isoform Q92915-2): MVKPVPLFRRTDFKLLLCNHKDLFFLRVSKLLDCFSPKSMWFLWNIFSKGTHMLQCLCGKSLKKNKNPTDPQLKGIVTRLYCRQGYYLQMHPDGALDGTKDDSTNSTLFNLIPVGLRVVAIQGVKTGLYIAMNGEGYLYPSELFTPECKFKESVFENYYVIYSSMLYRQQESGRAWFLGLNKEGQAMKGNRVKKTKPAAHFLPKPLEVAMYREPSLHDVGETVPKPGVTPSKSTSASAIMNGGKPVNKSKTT
Sequence (Q9UQD0 1763-1976 limits assumed): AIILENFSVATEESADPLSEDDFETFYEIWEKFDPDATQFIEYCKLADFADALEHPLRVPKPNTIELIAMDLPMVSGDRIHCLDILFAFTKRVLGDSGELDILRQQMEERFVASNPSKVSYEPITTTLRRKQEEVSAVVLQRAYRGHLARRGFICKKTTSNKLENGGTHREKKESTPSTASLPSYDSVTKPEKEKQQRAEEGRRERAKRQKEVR
Assay: Split-luciferase complementation assay (LCA) in Clone V double stable HEK293 cells
Assay type: cell-based
Details: CC_NCI screening; LCA, biological replicate Set 2; normalized to on-plate 0.3% DMSO controls
assayEndpoint: Split Luciferase Assay Z-score Set 2
Answers are plain numbers.

| chemicalString | Split Luciferase Assay Z-score Set 2 |
| --- | --- |
| Cc1ccc(C(=O)Nc2ccc(CN3CCN(C)CC3)c(C(F)(F)F)c2)cc1C#Cc1cnc2cccnn12 | -3.40 |
| NC(=O)c1ccc(I)c([N+](=O)[O-])c1 | 1.01 |
| COC(=O)c1ccc2c(c1)NC(=O)/C2=C(\Nc1ccc(N(C)C(=O)CN2CCN(C)CC2)cc1)c1ccccc1 | 1.94 |

For the next question, use this compound.
Request: Please report the recorded Split Luciferase Assay Z-score Set 2 for Cc1c(NC(=O)OC[C@@H]2COCCN2)cn2ncnc(Nc3ccc4c(cnn4Cc4cccc(F)c4)c3)c12 .
Result: -3.99

---

Target: full-length P. pyralis luciferase (Photinus pyralis, UniProt P08659, K549A/L550V/N119G/N50D/S548I)
Sequence (P08659 whole entry N50D/N119G/S548I/K549A/L550V, looked up): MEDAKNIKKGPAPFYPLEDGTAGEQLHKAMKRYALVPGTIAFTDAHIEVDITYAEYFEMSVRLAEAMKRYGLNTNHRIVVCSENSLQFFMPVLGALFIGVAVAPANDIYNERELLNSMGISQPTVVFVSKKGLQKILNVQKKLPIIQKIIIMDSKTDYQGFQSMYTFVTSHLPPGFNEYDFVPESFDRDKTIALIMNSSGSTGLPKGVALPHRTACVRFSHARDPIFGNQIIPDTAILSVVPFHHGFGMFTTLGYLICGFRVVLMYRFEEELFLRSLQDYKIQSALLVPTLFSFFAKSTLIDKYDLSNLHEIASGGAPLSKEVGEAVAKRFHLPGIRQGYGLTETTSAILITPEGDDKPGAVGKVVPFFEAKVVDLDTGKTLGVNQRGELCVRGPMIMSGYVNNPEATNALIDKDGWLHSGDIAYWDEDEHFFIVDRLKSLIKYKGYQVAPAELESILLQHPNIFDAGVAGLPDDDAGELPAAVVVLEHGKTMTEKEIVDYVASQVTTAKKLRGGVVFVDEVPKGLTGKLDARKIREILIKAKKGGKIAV
Type: cell-based
Settings: CC_NCI screening; full-length luciferase counter-screen luminescence; normalized to on-plate 0.3% DMSO controls
*1 amine or outer side, *2 acyl side, *3 side chain or, on linkers, in order; H or OH if unused. Where a SMILES comes first, the peptide text is derived from it. Bridges are numbered along the chain shown (N, C = ends). Roman numbers before positions name the chains, in order. [ ]: non-standard residue; d: D form. Actinocin(9to1) = Cc1c2oc3c(C)ccc(C(=O)[*:1])c3nc-2c(C(=O)[*:2])c(N)c1=O; NMeV = CN[C@H](C(=O)O)C(C)C; Sar = CNCC(=O)O
Binary call on Luciferase Assay % Lum with cut-off 90%: strictly below means Criterion met, and equality or higher means Criterion not met.

Request: Just wondering, is Luciferase Assay % Lum of COc1cc(Nc2c(C#N)cnc3cc(OCCCN4CCN(C)CC4)c(OC)cc23)c(Cl)cc1Cl [BOSUTINIB] below 90%?
Result: Criterion not met

Request: Moving on to CCn1c(-c2nonc2N)nc2cnc(Oc3cccc(NC(=O)c4ccc(OCCN5CCOCC5)cc4)c3)cc21 [GSK 269962A]
Result: Criterion met

Request: Moving on to Cc1c2oc3c(C)ccc(C(=O)N[C@@H]4C(=O)N[C@H](C(C)C)C(=O)N5CCC[C@H]5C(=O)N(C)CC(=O)N(C)[C@@H](C(C)C)C(=O)O[C@@H]4C)c3nc-2c(C(=O)N[C@@H]2C(=O)N[C@H](C(C)C)C(=O)N3CCC[C@H]3C(=O)N(C)CC(=O)N(C)[C@@H](C(C)C)C(=O)O[C@@H]2C)c(N)c1=O [Dactinomycin] (I: T[dV]P[Sar][NMeV] / II: T[dV]P[Sar][NMeV]; ester I:1-I:C, II:1-II:C; linker I:N-II:N via Actinocin(9to1))
Result: Criterion not met

---

Test system: Clone V cells
Give measured Toxicity Assay % Fluor for each item. Keep answers brief.
Give bare numbers, in %.

Sample records with Toxicity Assay % Fluor:
| molecule | assayedTarget | Toxicity Assay % Fluor (%) |
| --- | --- | --- |
| Cl.Cn1c(CCCC(=O)O)nc2cc(N(CCCl)CCCl)ccc21 [Bendamustine hydrochloride] | Clone V cells | 87.62 |
| N#C/C(=C/c1ccc(O)c(O)c1)C(=O)NCc1ccccc1 [AG 490] | Clone V cells | 89.42 |
| CCOC(=O)C1=C(N)Oc2ccc(Br)cc2C1C(C#N)C(=O)OCC (centres unmarked) [HA14-1] | Clone V cells | 102.67 |

Answer for every listed entry: what is its Toxicity Assay % Fluor? The entries follow.
1. CC(C)(C)c1nc(-c2cccc(NS(=O)(=O)c3c(F)cccc3F)c2F)c(-c2ccnc(N)n2)s1.CS(=O)(=O)O [Dabrafenib mesylate]
2. O=C(Nc1cccc(Nc2ncc(Br)c(NCCc3cnc[nH]3)n2)c1)N1CCCC1 [BX 912, reference compound]
3. CNC(=O)c1ccccc1Sc1ccc2c(/C=C/c3ccccn3)n[nH]c2c1 [Axitinib]

Result:
93.50
106.22
91.66

Answer for every listed entry: what is its Toxicity Assay % Fluor? The entries follow.
1. COC1=C2C[C@@H](C)C[C@H](OC)[C@H](O)[C@@H](C)/C=C(\C)[C@H](OC(N)=O)[C@@H](OC)/C=C\C=C(/C)C(=O)NC(=CC1=O)C2=O [GELDENAMYCIN]
2. CC(/C=C/C(=O)NO)=C\[C@@H](C)C(=O)c1ccc(N(C)C)cc1 [TRICHOSTATIN A]

Result:
1. 94.70
2. 97.32

Answer for every listed entry: what is its Toxicity Assay % Fluor? The entries follow.
1. CCCCCCCCCCCCSc1nc2c([nH]1)c(=O)n(C)c(=O)n2C
2. CC(C)C[C@H](NC(=O)[C@H](Cc1ccccc1)NC(=O)c1cnccn1)B(O)O [Bortezomib]
3. Cc1cc(N2CCOCC2)cc2[nH]c(-c3c(NC[C@@H](O)c4cccc(Cl)c4)cc[nH]c3=O)nc12 [BMS-536924]

Result:
[93.89, 93.30, 86.04]

Answer for every listed entry: what is its Toxicity Assay % Fluor? The entries follow.
1. Cn1cc(CNCC2CCN(c3ncc(C(=O)NO)cn3)CC2)c2ccccc21 [JNJ-26481585]
2. C[C@@H](N)[C@H]1CC[C@H](C(=O)Nc2ccncc2)CC1 [Compound Y-27632]
3. Cc1nc(Nc2ncc(C(=O)Nc3c(C)cccc3Cl)s2)cc(N2CCN(CCO)CC2)n1 [Dasatinib]

Result:
96.89
96.21
94.47

Answer for every listed entry: what is its Toxicity Assay % Fluor? The entries follow.
1. COc1cccc(-c2cc(=O)c3ccccc3o2)c1N [PD 98059]
2. OCC1OC(O)CC(O)C1O (centres unmarked) [Compound 2DG]
3. Cc1cc(Nc2ncc3cc(-c4c(Cl)cccc4Cl)c(=O)n(C)c3n2)ccc1F [PD 180970]

Result:
88.34
93.82
102.30

---

Target: FGF14:Nav1.6 C-tail complex (Homo sapiens, UniProt Q92915+Q9UQD0)
Construct: polymerase chain reaction (PCR) amplification of the FGF14 open reading frame (nt 1–855); C-terminal fragment of Nav1.6 (amino acids 1763–1976) fused with CD4ΔC-tail (amino acids 1–395); expressed in transfected cells
Assay: Split-luciferase complementation assay (LCA) in Clone V double stable HEK293 cells
Format: cell-based
Details: CC_NCI screening; LCA, biological replicate Set 2; normalized to on-plate 0.3% DMSO controls
Give T when the value for Split Luciferase Assay Z-score Set 2 is at least -2. Give F when it is less.

| molecule | classification |
| --- | --- |
| CC(C)C[C@H](NC(=O)[C@H](Cc1ccccc1)NC(=O)c1cnccn1)B(O)O [BORTEZOMIB] | T |
| Cc1cc(N2CCOCC2)cc2[nH]c(-c3c(NC[C@@H](O)c4cccc(Cl)c4)cc[nH]c3=O)nc12 | F |
| N#C/C(=C/c1ccc(O)c(O)c1)C(=O)NCc1ccccc1 | T |
| Oc1ccc(-c2nc(-c3ccncc3)c(-c3ccc(F)cc3)[nH]2)cc1 | T |

Request: In plain terms: is recorded Split Luciferase Assay Z-score Set 2 at least -2 for Oc1ncnc2[nH]ncc12 ?
Result: T

Request: Moving on to CO[C@H]1C(=O)[C@]2(C)[C@@H](OC)C[C@H]3OC[C@@]3(OC(C)=O)[C@H]2[C@H](OC(=O)c2ccccc2)[C@]2(O)C[C@H](OC(=O)[C@H](O)[C@@H](NC(=O)OC(C)(C)C)c3ccccc3)C(C)=C1C2(C)C
Result: T

Request: Moving on to CC(C)C[C@H](NC(=O)[C@H](Cc1ccccc1)NC(=O)c1cnccn1)B(O)O [Bortezomib]
Result: T

Request: Moving on to CCn1c(-c2nonc2N)nc2cnc(Oc3cccc(NC(=O)c4ccc(OCCN5CCOCC5)cc4)c3)cc21 [GSK 269962A]
Result: F

Request: Moving on to CN(C)Cc1c(C(=O)NCCOc2ccc(C(=O)NO)cc2)oc2ccccc12
Result: T

Request: Moving on to COc1cccc(-c2cc(=O)c3ccccc3o2)c1N
Result: T

---

Biological target: full-length P. pyralis luciferase (Photinus pyralis, UniProt P08659, K549A/L550V/N119G/N50D/S548I)
Type: cell-based
Conditions: CC_NCI screening; normalized to on-plate 0.3% DMSO controls
assayEndpoint: Luciferase Assay % Lum (full-length luciferase counter-screen) (%)
One number for each entry, in %.

| molecule | assayValue |
| --- | --- |
| Nc1ncn([C@@H]2O[C@H](CO)[C@@H](O)[C@H]2O)c(=O)n1 [Azacitidine] | 93.68 |
| CC(=O)O[C@H]1C(=O)[C@@]2(C)[C@H]([C@H](OC(=O)c3ccccc3)[C@]3(O)C[C@H](OC(=O)[C@H](O)[C@@H](NC(=O)c4ccccc4)c4ccccc4)C(C)=C1C3(C)C)[C@]1(OC(C)=O)CO[C@@H]1C[C@@H]2O [Paclitaxel] | 114.27 |

For the next question, use this molecule.
Request: Please report the recorded Luciferase Assay % Lum (full-length luciferase counter-screen) for CS(=O)(=O)c1ccc(C(=O)Nc2ccc(Cl)c(-c3ccccn3)c2)c(Cl)c1 [GDC-0449] .
Result: 95.45
